Literature compilation of IC50 measurements on Fatty-acid amide hydrolase 1 (Rattus norvegicus, UniProt P97612).
recorded_metric: IC50 (nM)

1. CCNC(=O)Oc1cccc(C(=O)c2nc3ccccc3o2)c1
2. O=C(N1CCCC(O)C1)N1CC(OC(c2ccc(Cl)cc2)c2cccnc2Cl)C1 (racemic)
Data request: Lower value for measured IC50? Options: 1 , 2 Label of pick, please.
Data returned: 1

a. O=C(NCCCCCCn1c(-c2ccccc2)cc2ccccc21)Oc1ccccc1
b. O=C(Nc1ccc(-n2nccn2)nc1)N1C[C@@H]2CCN(Cc3cccc(Oc4ccc(Cl)cc4)c3)C[C@H]2C1
Data request: Which record would sort first by descending IC50, a or b ? Label of pick, please.
Data returned: b

1. O=C(Nc1cnc2[nH]ccc2c1)N1CC2CC1CN2Cc1cccc(Oc2ccc(Cl)cc2)c1 (stereo unspecified)
2. Cn1c(=O)n(C2CCCN(c3nccc(-c4cc5ccccc5o4)n3)C2)c2ccccc21 (stereo unspecified)
3. Cc1cc(C(=O)N[C@H]2CC/C(=C\c3cccc(Oc4ccc(C(F)(F)F)cn4)c3)CC2)cnc1N (stereo unspecified)
4. O=C(N1CCC(O)CC1)N1CC(OC(c2ccc(Cl)cc2)c2cccnc2Cl)C1 (racemic)
5. O=C(Nc1ccc(-c2nccs2)cc1)C1CCN(S(=O)(=O)c2cccs2)CC1
Data request: Would you mind ranking these molecules by ascending IC50? A complete answer lists every label in the requested sequence.
Data returned: 3, 1, 5, 2, 4

1. O=C(Nc1cccnn1)N1CCN(c2cc(-c3ccc(F)cc3F)ncn2)CC1
2. O=C(NCc1ccccc1)c1ccc(B(O)O)cc1
3. CCCCCc1ccc2ccc(CCCC(=O)NCCc3c[nH]c4ccc(O)cc34)cc2c1
Data request: Order field: IC50 | Direction: descending (largest first) A complete answer lists every label in the requested sequence.
Data returned: 3, 2, 1
(3: 50000 nM, 2: 2870 nM, 1: 1.7 nM)

###

Literature compilation of IC50 measurements on Fatty-acid amide hydrolase 1 (Rattus norvegicus, UniProt P97612).
Target: Fatty-acid amide hydrolase 1 (Rattus norvegicus, UniProt P97612)
Sequence (P97612 whole entry): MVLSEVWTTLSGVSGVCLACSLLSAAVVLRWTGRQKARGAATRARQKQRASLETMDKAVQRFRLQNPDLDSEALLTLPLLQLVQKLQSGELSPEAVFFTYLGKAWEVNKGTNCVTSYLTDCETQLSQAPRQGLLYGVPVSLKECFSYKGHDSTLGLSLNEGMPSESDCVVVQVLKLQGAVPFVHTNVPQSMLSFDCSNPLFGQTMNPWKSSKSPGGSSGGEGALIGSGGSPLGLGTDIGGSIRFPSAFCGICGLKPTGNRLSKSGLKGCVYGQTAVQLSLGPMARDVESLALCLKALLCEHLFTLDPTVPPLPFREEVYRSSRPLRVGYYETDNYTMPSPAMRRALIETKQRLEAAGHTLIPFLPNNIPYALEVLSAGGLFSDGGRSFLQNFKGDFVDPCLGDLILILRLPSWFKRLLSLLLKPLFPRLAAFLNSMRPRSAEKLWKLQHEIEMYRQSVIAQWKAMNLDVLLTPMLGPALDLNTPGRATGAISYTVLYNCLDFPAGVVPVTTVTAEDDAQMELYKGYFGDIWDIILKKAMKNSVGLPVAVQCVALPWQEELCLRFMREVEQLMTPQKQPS
recorded_metric: IC50 (nM)

Use these answered entries as a reference point.
molecule	unit	IC50
CN(C)C(=O)n1nnnc1Cc1ccc(-c2ccccc2)cc1	nM	5
Cc1c(-c2ccccc2)cc(-c2ccccc2)n1CCCCCCNC(=O)Oc1ccccc1	nM	460
O=C(Nc1ccc(-c2ccccc2)cc1)c1ccc(B(O)O)cc1	nM	150

1. OC(CNc1cc(-c2ccc(Cl)cc2)ncn1)c1ccccc1 (racemic)
2. O=C(N1CCCCC1)N1CC(O[C@H](c2ccc(Cl)cc2)c2cccnc2Cl)C1
Data request: Which record would sort first by descending IC50, 1 or 2 ? Label of pick, please.
Data returned: 2

A. Cc1ccc(C)n1-c1ccc(-c2nnn(C(=O)N(C)C)n2)cc1
B. O=C(NCCCCCCCn1ccc2ccccc21)Oc1ccccc1
Data request: Lower value for measured IC50? Options: A , B Label of pick, please.
Data returned: A

a. O=C(NCc1ccc(-c2ccccc2)cc1)c1ccc(B(O)O)cc1
b. CCn1c(=O)n(C2CCCN(c3cc(-c4cc5ccccc5o4)ncn3)C2)c2ncccc21 (racemic)
Data request: Which record would sort first by descending IC50, a or b ? Label of pick, please.
Data returned: a
(a: 1860 nM, b: 570 nM)
